System: SK-MEL-5 melanoma
Run Description: NCI tumour cell line growth inhibition, 48 h; in the data active means GI50 below about 0.43 µM; inactive means the rest
Pick from T = active, F = inactive when you respond.

Enquiry: Recorded test call requested for COc1ccc(N2C(C)=C(C#N)C34C(=O)N(c5ccccc5)C(=O)C3=C(O)C=CC24O)cc1 (centres undefined)
Return: F

Enquiry: Recorded test call requested for COC(=O)[C@@H](C)C[C@H](Cc1ccccc1)NC(=O)c1nc([C@@H](C[C@H](C(C)C)N(C)C(=O)[C@@H](NC(=O)[C@H]2CCCCN2C)C(C)C)OC(C)=O)sc1C
Return: T

Enquiry: Recorded test call requested for CN(C)S(=O)(=O)c1ccc(NC(=O)COC(=O)c2ccc(S(=O)(=O)N3CCCCC3)cc2)cc1
Return: F

Enquiry: Recorded test call requested for ClCCn1c(CCl)nc2ccc(Cl)cc21
Return: T
